Data provenance is patent US7015228B2.

# Tested on: S. aureus ATCC 6538
# Assay Details: Determination of the bactericidal activity (logarithmic reduction in organism count)
# Assay type: cell-based, Staphylococcus aureus
# Details: contact for 30 minutes at a substance concentration of 120 μg/mL
Logarithmic reduction in organism count, S. aureus ATCC 6538 for assorted compounds

* CC(C)(C)c1cc(NCCc2ccccc2)nc(-c2ccccn2)n1 | <1 log

Tell me Logarithmic reduction in organism count, S. aureus ATCC 6538 reported for COCCc1cc(NCCCCCCCCN)nc(-c2ccccn2)n1
>3 log

Tell me Logarithmic reduction in organism count, S. aureus ATCC 6538 reported for CCCCCCCNc1cc(C(F)(F)F)nc(-c2ccccn2)n1
<1 log

Tell me Logarithmic reduction in organism count, S. aureus ATCC 6538 reported for CCCCCCCCCCCCNc1cc(C(C)(C)C)nc(-c2ccccn2)n1
<1 log

Tell me Logarithmic reduction in organism count, S. aureus ATCC 6538 reported for CCCCCCCCCCCCCCCCNc1cc(C(F)(F)F)nc(-c2ccccn2)n1
1–2 log

====

# Test system: Klebsiella pneumonia ATCC 4352
# Assay Details: Minimum inhibitory concentration (MIC), further microorganisms
# Type: cell-based
# Details: Table 8; * = significant inhibition of growth, but not complete inhibition
Property Name: Minimum inhibitory concentration (MIC) Klebsiella pneumonia ATCC 4352

The following compounds have reported results that may help.
- COCCc1cc(NCCCCCCCCCCCCN)nc(-c2ccccn2)n1 [compound 79]: >60 µg/mL
- CCCCCCCCCNc1cc(C)nc(-c2ccccn2)n1 [compound 22]: >60 µg/mL
- COCCc1cc(NCCCCCCCCCN)nc(-c2ccccn2)n1 [compound 78]: >60 µg/mL
- Cc1cc(NCCCCCCCCCCCCN)nc(-c2ccccn2)n1 [compound 19]: >60 µg/mL
- CCCCCCCCCCCCCCCNc1cc(C)nc(-c2ccccn2)n1 [compound 93]: >120 µg/mL
- Cc1cc(NCCCCCCCCCN)nc(-c2ccccn2)n1 [compound 18]: >60 µg/mL
- CCc1c(C)nc(-c2ccccn2)nc1NCCCCCCCCCCCCN [compound 7]: >60 µg/mL
- CCCCCCCCCCCCNc1nc(-c2ccccn2)nc(C)c1CC [compound 12]: >60 µg/mL

Tell me Minimum inhibitory concentration (MIC) Klebsiella pneumonia ATCC 4352 reported for Cc1nc(-c2ccccn2)nc(NCCCCCCCCN)c1C(C)C [compound 65]
>60 µg/mL

Tell me Minimum inhibitory concentration (MIC) Klebsiella pneumonia ATCC 4352 reported for CCCCCCCCCCCCNc1cc(C(C)(C)C)nc(-c2ccccn2)n1 [compound 60]
>60 µg/mL

Tell me Minimum inhibitory concentration (MIC) Klebsiella pneumonia ATCC 4352 reported for CCCCCCCCCCCCCCCNc1cc(C(C)C)nc(-c2ccccn2)n1 [compound 99]
>60 µg/mL

Tell me Minimum inhibitory concentration (MIC) Klebsiella pneumonia ATCC 4352 reported for CC(C)c1cc(NCCCCCCCCCN)nc(-c2ccccn2)n1 [compound 42]
>60 µg/mL

Tell me Minimum inhibitory concentration (MIC) Klebsiella pneumonia ATCC 4352 reported for CCCCCCCCCCCNc1cc(C)nc(-c2ccccn2)n1 [compound 92]
120 µg/mL

Tell me Minimum inhibitory concentration (MIC) Klebsiella pneumonia ATCC 4352 reported for CC(C)(C)c1cc(NCCCCCCCCCN)nc(-c2ccccn2)n1 [compound 54]
>60 µg/mL

Tell me Minimum inhibitory concentration (MIC) Klebsiella pneumonia ATCC 4352 reported for CCCCCCCCNc1cc(C)nc(-c2ccccn2)n1 [compound 21]
120 µg/mL

Tell me Minimum inhibitory concentration (MIC) Klebsiella pneumonia ATCC 4352 reported for CCCCCCCCCCCNc1cc(C(C)C)nc(-c2ccccn2)n1 [compound 98]
120 µg/mL

Tell me Minimum inhibitory concentration (MIC) Klebsiella pneumonia ATCC 4352 reported for CCCCCCCCCCCCNc1cc(C(C)C)nc(-c2ccccn2)n1 [compound 48]
>60 µg/mL

Tell me Minimum inhibitory concentration (MIC) Klebsiella pneumonia ATCC 4352 reported for CCCCCCCCCCCCCCCNc1nc(-c2ccccn2)nc(C)c1CC [compound 90]
>60 µg/mL

Tell me Minimum inhibitory concentration (MIC) Klebsiella pneumonia ATCC 4352 reported for NCCCCCCCCCNc1cc(C(F)(F)F)nc(-c2ccccn2)n1 [compound 30]
>60 µg/mL

Tell me Minimum inhibitory concentration (MIC) Klebsiella pneumonia ATCC 4352 reported for COCCc1cc(NCCCCCCCCN)nc(-c2ccccn2)n1 [compound 77]
>60 µg/mL

Tell me Minimum inhibitory concentration (MIC) Klebsiella pneumonia ATCC 4352 reported for CCCCCCCCCCCCNc1cc(C)nc(-c2ccccn2)n1 [compound 24]
>60 µg/mL

Tell me Minimum inhibitory concentration (MIC) Klebsiella pneumonia ATCC 4352 reported for Cc1nc(-c2ccccn2)nc(NCCCCCCCCCN)c1C(C)C [compound 66]
>60 µg/mL

Tell me Minimum inhibitory concentration (MIC) Klebsiella pneumonia ATCC 4352 reported for CCCCCCCCCCCNc1nc(-c2ccccn2)nc(C)c1CC [compound 89]
60 µg/mL
